Sourced from patent US20230183713A1

Entries annotated with measured Median dimer activity (recombination on loxP)
# experimentalSystem: T1, Cre recombinase monomer with Q311R mutation
# T1 chain: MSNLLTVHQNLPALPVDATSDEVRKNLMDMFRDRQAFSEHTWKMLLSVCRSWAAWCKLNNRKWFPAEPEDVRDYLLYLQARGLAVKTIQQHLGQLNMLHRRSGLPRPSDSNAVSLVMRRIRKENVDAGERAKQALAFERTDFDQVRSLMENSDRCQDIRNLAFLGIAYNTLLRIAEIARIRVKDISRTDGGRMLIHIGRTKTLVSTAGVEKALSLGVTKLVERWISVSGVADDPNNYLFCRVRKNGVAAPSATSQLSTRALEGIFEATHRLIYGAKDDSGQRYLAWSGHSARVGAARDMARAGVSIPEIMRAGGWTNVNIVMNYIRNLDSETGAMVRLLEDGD
Answer with a number only, understood to be in %.

protein	valueUnits	observedMeasurement
Cre recombinase monomer with Q133H mutation (protein) MSNLLTVHQNLPALPVDATSDEVRKNLMDMFRDRQAFSEHTWKMLLSVCRSWAAWCKLNNRKWFPAEPEDVRDYLLYLQARGLAVKTIQQHLGQLNMLHRRSGLPRPSDSNAVSLVMRRIRKENVDAGERAKHALAFERTDFDQVRSLMENSDRCQDIRNLAFLGIAYNTLLRIAEIARIRVKDISRTDGGRMLIHIGRTKTLVSTAGVEKALSLGVTKLVERWISVSGVADDPNNYLFCRVRKNGVAAPSATSQLSTRALEGIFEATHRLIYGAKDDSGQRYLAWSGHSARVGAARDMARAGVSIPEIMQAGGWTNVNIVMNYIRNLDSETGAMVRLLEDGD	%	96

Can you share its Median dimer activity (recombination on loxP)? I mean this protein: Cre recombinase monomer with R292N mutation (protein) MSNLLTVHQNLPALPVDATSDEVRKNLMDMFRDRQAFSEHTWKMLLSVCRSWAAWCKLNNRKWFPAEPEDVRDYLLYLQARGLAVKTIQQHLGQLNMLHRRSGLPRPSDSNAVSLVMRRIRKENVDAGERAKQALAFERTDFDQVRSLMENSDRCQDIRNLAFLGIAYNTLLRIAEIARIRVKDISRTDGGRMLIHIGRTKTLVSTAGVEKALSLGVTKLVERWISVSGVADDPNNYLFCRVRKNGVAAPSATSQLSTRALEGIFEATHRLIYGAKDDSGQRYLAWSGHSANVGAARDMARAGVSIPEIMQAGGWTNVNIVMNYIRNLDSETGAMVRLLEDGD
95

Further, for Cre recombinase monomer with R173P mutation (protein) MSNLLTVHQNLPALPVDATSDEVRKNLMDMFRDRQAFSEHTWKMLLSVCRSWAAWCKLNNRKWFPAEPEDVRDYLLYLQARGLAVKTIQQHLGQLNMLHRRSGLPRPSDSNAVSLVMRRIRKENVDAGERAKQALAFERTDFDQVRSLMENSDRCQDIRNLAFLGIAYNTLLPIAEIARIRVKDISRTDGGRMLIHIGRTKTLVSTAGVEKALSLGVTKLVERWISVSGVADDPNNYLFCRVRKNGVAAPSATSQLSTRALEGIFEATHRLIYGAKDDSGQRYLAWSGHSARVGAARDMARAGVSIPEIMQAGGWTNVNIVMNYIRNLDSETGAMVRLLEDGD ?
94

# iterate: Cre recombinase monomer with E176Y mutation (protein) MSNLLTVHQNLPALPVDATSDEVRKNLMDMFRDRQAFSEHTWKMLLSVCRSWAAWCKLNNRKWFPAEPEDVRDYLLYLQARGLAVKTIQQHLGQLNMLHRRSGLPRPSDSNAVSLVMRRIRKENVDAGERAKQALAFERTDFDQVRSLMENSDRCQDIRNLAFLGIAYNTLLRIAYIARIRVKDISRTDGGRMLIHIGRTKTLVSTAGVEKALSLGVTKLVERWISVSGVADDPNNYLFCRVRKNGVAAPSATSQLSTRALEGIFEATHRLIYGAKDDSGQRYLAWSGHSARVGAARDMARAGVSIPEIMQAGGWTNVNIVMNYIRNLDSETGAMVRLLEDGD
79
